Exercise: for every item that follows, state its recorded cytotoxicity at 70.5 h.
assay: Human HepG2 cell viability assay in 384 well format; assay type: toxicity, cell-based; set-up: dose 125 nL, time 70.5 hour; concentration not given beside the values; settings: HepG2 cells, read-out: Inhibition
One number for each entry, in %.

The examples below pair each entry with its known result.
{"molecule": "CN1C[C@@H](NC(=O)c2ccccc2)C[C@H]1c1nc(-c2cnccn2)no1", "cytotoxicity at 70.5 h [%]": 10.6}
{"molecule": "COCCCC1CCCCN1Cc1cnn(C)c1C1CC1 (configuration not stated)", "cytotoxicity at 70.5 h [%]": -2.6}
{"molecule": "c1ccc(-c2cnc(CNCC3CCCN3c3cccnn3)o2)cc1 (configuration not stated)", "cytotoxicity at 70.5 h [%]": -5.15}
{"molecule": "COC1CCN(C(=O)CC(C)(C)C)CC(=O)N(C)c2ccccc21 (configuration not stated)", "cytotoxicity at 70.5 h [%]": 6.54}
{"molecule": "O=C(Nc1cc(F)ccc1OCC1CCCO1)c1ccc(O)nc1 (configuration not stated)", "cytotoxicity at 70.5 h [%]": -6.69}
{"molecule": "CCN(CC)C(=O)CCNC(=O)N(C)Cc1ccc(SC)c(OC)c1", "cytotoxicity at 70.5 h [%]": -11.2}

For the 6 molecules below, give their cytotoxicity at 70.5 h values.
1. CNC(=O)c1cccc(CCNc2ccc(C#N)cn2)c1
2. CN(Cc1ccsc1)Cc1ccc(C2CCCCO2)o1 (configuration not stated)
3. CCSc1ncc(CN(Cc2cnn(C)c2)CC(C)C)cn1
4. CC(=O)N1CCCN(CCCc2ccccc2)CC1
5. COc1ccccc1NC(=O)N1CCCC1c1ccco1 (configuration not stated)
6. c1cnc2nc(N3CCCC3c3nnc4n3CCCCC4)ccc2n1 (configuration not stated)

1: 0.174; 2: -3.14; 3: -4.66; 4: -6.32; 5: -0.874; 6: -4.33

###

test: Human HepG2 cell viability assay in 384 well format; format: toxicity, cell-based; parameters: dose 125 nL, time 70.5 hour; concentration not given beside the values; settings: HepG2 cells, read-out: Inhibition
measured.attribute: cytotoxicity at 70.5 h (%)
One number for each entry, in %.

The examples below pair each entry with its known result.
{"compound": "CNC(=O)C1CN(C(=O)c2ccncc2)CCN(S(C)(=O)=O)C1 (stereo unspecified)", "cytotoxicity at 70.5 h, %": 22.7}
{"compound": "COc1ccc2c(c1)C1(CCN(Cc3nccs3)CC1)N(C)CC2", "cytotoxicity at 70.5 h, %": 5.77}
{"compound": "COc1ccc(Br)cc1S(=O)(=O)N(C)Cc1ccc(N(C)C)cc1", "cytotoxicity at 70.5 h, %": -3.08}

For the 2 compounds below, give their cytotoxicity at 70.5 h values.
1. COc1ccccc1N1CCN(C(=O)c2ccoc2)CC1
2. COc1cc2c(cc1CN1CCCCC1CN1CCOCC1)CCC2 (stereo unspecified)

1. -6.02
2. 1.06

Briefly, cytotoxicity at 70.5 h measured for `Cc1cccc(CN2C[C@@H]3COC[C@]3(CNC(=O)c3cccn3C)C2)n1` : 19.6

###

assay: Human HepG2 cell viability assay in 384 well format; assay type: toxicity, cell-based; design: dose 125 nL, time 70.5 hour; concentration not given beside the values; conditions: HepG2 cells, read-out: Inhibition
# strict inequality: cytotoxicity at 70.5 h < -10% yields condition met, everything else yields condition not met

Worked cases, answers included:
{"molecule": "Cc1ncoc1C(=O)N1CCn2c(COCC3CC3)cnc2C1C (configuration not stated)", "assigned.class": "condition not met"}
{"molecule": "COCc1cc(N2CCN(c3ccc(Cl)cn3)CC2)n2nccc2n1", "assigned.class": "condition not met"}
{"molecule": "O=C(c1cccc(Cl)c1F)N1CCOC2(CNCCOC2)C1 (configuration not stated)", "assigned.class": "condition not met"}
{"molecule": "CN(C)C(=O)CCCNC(=O)C(c1cccc(F)c1)N(C)C (configuration not stated)", "assigned.class": "condition not met"}
{"molecule": "CNC(=O)c1cc2c(nc1NCC1CC1)CCN(c1ccncn1)CC2", "assigned.class": "condition met"}

Could you please tell me whether cytotoxicity at 70.5 h recorded for Cc1ccc(C2CN(Cc3cccc4[nH]ccc34)CCO2)nc1 (configuration not stated) is less than -10%?
condition not met
